Please respond with reported mean geometric MIC, Vancomycin Sensitive Strains for every item in the list.
test system: vancomycin-susceptible enterococci; assay: broth micro-dilution, mean geometric MIC; assay type: cell-based, Enterococcus faecium and Enterococcus faecalis; settings: enterococci, 24-hour incubation
One number for each entry, in µg/mL.

Illustrative cases are given below, each with its answer.
MOLECULE	RECORDED VALUE
CNC(CC(C)C)C(=O)NC1C(=O)NC(CC(N)=O)C(=O)NC2C(=O)NC3C(=O)NC(C(=O)NC(C(=O)O)c4cc(O)cc(O)c4-c4cc3ccc4O)C(OC3CC(C)(N)C(O)C(C)O3)c3ccc(c(Cl)c3)Oc3cc2cc(c3OC2OC(CO)C(O)C(O)C2OC2CC(C)(NCc3c4ccccc4c(Cl)c4ccccc34)C(O)C(C)O2)Oc2ccc(cc2Cl)C1O (stereo not drawn) [Compound 18]	0.38
CNC(CC(C)C)C(=O)NC1C(=O)NC(CC(N)=O)C(=O)NC2C(=O)NC3C(=O)NC(C(=O)NC(C(=O)O)c4cc(O)cc(O)c4-c4cc3ccc4O)C(OC3CC(C)(N)C(O)C(C)O3)c3ccc(c(Cl)c3)Oc3cc2cc(c3OC2OC(CO)C(O)C(O)C2OC2CC(C)(NCc3ccc(OCCOC(C)(C)C)cc3)C(O)C(C)O2)Oc2ccc(cc2Cl)C1O (stereo not drawn) [Compound 154]	0.072
CCCCCC#Cc1ccc(CNC2(C)CC(OC3C(Oc4c5cc6cc4Oc4ccc(cc4Cl)C(OC4CC(C)(N)C(O)C(C)O4)C4NC(=O)C(NC(=O)C6NC(=O)C(CC(N)=O)NC(=O)C(NC(=O)C(CC(C)C)NC)C(O)c6ccc(c(Cl)c6)O5)c5ccc(O)c(c5)-c5c(O)cc(O)cc5C(C(=O)O)NC4=O)OC(CO)C(O)C3O)OC(C)C2O)cc1 (stereo not drawn) [Compound 227]	0.11

Answer for every listed entry: what is its mean geometric MIC, Vancomycin Sensitive Strains? The entries follow.
1. CNC(CC(C)C)C(=O)NC1C(=O)NC(CC(N)=O)C(=O)NC2C(=O)NC3C(=O)NC(C(=O)NC(C(=O)O)c4cc(O)cc(O)c4-c4cc3ccc4O)C(OC3CC(C)(N)C(O)C(C)O3)c3ccc(c(Cl)c3)Oc3cc2cc(c3OC2OC(CO)C(O)C(O)C2OC2CC(C)(NCc3ccc4c(c3)CCc3ccccc3-4)C(O)C(C)O2)Oc2ccc(cc2Cl)C1O (stereo not drawn) [Compound 220]
2. CNC(CC(C)C)C(=O)NC1C(=O)NC(CC(N)=O)C(=O)NC2C(=O)NC3C(=O)NC(C(=O)NC(C(=O)O)c4cc(O)cc(O)c4-c4cc3ccc4O)C(OC3CC(C)(N)C(O)C(C)O3)c3ccc(cc3)Oc3cc2cc(c3OC2OC(CO)C(O)C(O)C2OC2CC(C)(NCc3ccc(-c4ccccc4)cc3)C(O)C(C)O2)Oc2ccc(cc2)C1O (stereo not drawn) [Compound 183]
3. CNC(CC(C)C)C(=O)NC1C(=O)NC(CC(N)=O)C(=O)NC2C(=O)NC3C(=O)NC(C(=O)NC(C(=O)O)c4cc(O)cc(O)c4-c4cc3ccc4O)C(OC3CC(C)(N)C(O)C(C)O3)c3ccc(c(Cl)c3)Oc3cc2cc(c3OC2OC(CO)C(O)C(O)C2OC2CC(C)(NCc3ccc(-c4ccc(Br)cc4)cc3)C(O)C(C)O2)Oc2ccc(cc2Cl)C1O (stereo not drawn) [Compound 230]
4. CNC(CC(C)C)C(=O)NC1C(=O)NC(CC(N)=O)C(=O)NC2C(=O)NC3C(=O)NC(C(=O)NC(C(=O)O)c4cc(O)cc(O)c4-c4cc3ccc4O)C(OC3CC(C)(NCc4ccc(-c5ccccc5)cc4)C(O)C(C)O3)c3ccc(c(Cl)c3)Oc3cc2cc(c3OC2OC(CO)C(O)C(O)C2OC2CC(C)(NCc3ccc(-c4ccccc4)cc3)C(O)C(C)O2)Oc2ccc(cc2Cl)C1O (stereo not drawn) [Compound 248]
5. CNC(CC(C)C)C(=O)NC1C(=O)NC(CC(N)=O)C(=O)NC2C(=O)NC3C(=O)NC(C(=O)NC(C(=O)O)c4cc(O)cc(O)c4-c4cc3ccc4O)C(OC3CC(C)(N)C(O)C(C)O3)c3ccc(c(Cl)c3)Oc3cc2cc(c3OC2OC(CO)C(O)C(O)C2OC2CC(C)(NCc3ccc(-c4ccc(OC)cc4)cc3)C(O)C(C)O2)Oc2ccc(cc2Cl)C1O (stereo not drawn) [Compound 54]
6. CNC(CC(C)C)C(=O)NC1C(=O)NC(CC(N)=O)C(=O)NC2C(=O)NC3C(=O)NC(C(=O)NC(C(=O)O)c4cc(O)cc(O)c4-c4cc3ccc4O)C(OC3CC(C)(N)C(O)C(C)O3)c3ccc(c(Cl)c3)Oc3cc2cc(c3OC2OC(CO)C(O)C(O)C2OC2CC(C)(NCc3ccc(N4CCC(C)CC4)cc3)C(O)C(C)O2)Oc2ccc(cc2Cl)C1O (stereo not drawn) [Compound 129]
7. CC(C)CC(C(=O)NC1C(=O)NC(CC(N)=O)C(=O)NC2C(=O)NC3C(=O)NC(C(=O)NC(C(=O)O)c4cc(O)cc(O)c4-c4cc3ccc4O)C(OC3CC(C)(N)C(O)C(C)O3)c3ccc(c(Cl)c3)Oc3cc2cc(c3OC2OC(CO)C(O)C(O)C2OC2CC(C)(NCc3ccc(-c4ccc(Cl)cc4)cc3)C(O)C(C)O2)Oc2ccc(cc2Cl)C1O)N(C)Cc1ccc(-c2ccc(Cl)cc2)cc1.O=C(O)C(F)(F)F (stereo not drawn) [Compound 253]

*A*
[0.05, 0.130, 0.031, 0.66, 0.56, 1.52, 3]

State recorded mean geometric MIC, Vancomycin Sensitive Strains for all listed molecules.
1. C=CCCCOc1ccc(CNC2(C)CC(OC3C(Oc4c5cc6cc4Oc4ccc(cc4Cl)C(OC4CC(C)(N)C(O)C(C)O4)C4NC(=O)C(NC(=O)C6NC(=O)C(CC(N)=O)NC(=O)C(NC(=O)C(CC(C)C)NC)C(O)c6ccc(c(Cl)c6)O5)c5ccc(O)c(c5)-c5c(O)cc(O)cc5C(C(=O)O)NC4=O)OC(CO)C(O)C3O)OC(C)C2O)cc1 (stereo not drawn) [Compound 226]
2. CNC(CC(C)C)C(=O)NC1C(=O)NC(CC(N)=O)C(=O)NC2C(=O)NC3C(=O)NC(C(=O)NC(C(=O)O)c4cc(O)cc(O)c4-c4cc3ccc4O)C(OC3CC(C)(N)C(O)C(C)O3)c3ccc(c(Cl)c3)Oc3cc2cc(c3OC2OC(CO)C(O)C(O)C2OC2CC(C)(NCc3ccc4cc(C)ccc4c3)C(O)C(C)O2)Oc2ccc(cc2Cl)C1O (stereo not drawn) [Compound 189]

*A*
[0.041, 0.10]
